Hello, the source for this data is patent US5840684A, in case you need it.

system: Streptococcus pyogenes C203; assay: broth micro-dilution MIC; assay type: cell-based
Each entry below carries its recorded MIC.
The response must be a number in µg/mL with no trailing unit.

Need MIC, item CC(C)CC(C(=O)NC1C(=O)NC(CC(N)=O)C(=O)NC2C(=O)NC3C(=O)NC(C(=O)NC(C(=O)O)c4cc(O)cc(O)c4-c4cc3ccc4O)C(OC3CC(C)(NCc4ccc(-c5ccccc5)cc4)C(O)C(C)O3)c3ccc(c(Cl)c3)Oc3cc2cc(c3OC2OC(CO)C(O)C(O)C2OC2CC(C)(NCc3ccc(-c4ccccc4)cc3)C(O)C(C)O2)Oc2ccc(cc2Cl)C1O)N(C)Cc1ccc(-c2ccccc2)cc1 (centres unmarked) 0.5

Let us move to another entry and its MIC.
Need MIC, item CNC(CC(C)C)C(=O)NC1C(=O)NC(CC(N)=O)C(=O)NC2C(=O)NC3C(=O)NC(C(=O)NC(C(=O)O)c4cc(O)cc(O)c4-c4cc3ccc4O)C(OC3CC(C)(NCc4ccc(-c5ccc(Cl)cc5)cc4)C(O)C(C)O3)c3ccc(c(Cl)c3)Oc3cc2cc(c3OC2OC(CO)C(O)C(O)C2OC2CC(C)(NCc3ccc(-c4ccc(Cl)cc4)cc3)C(O)C(C)O2)Oc2ccc(cc2Cl)C1O.O=C(O)C(F)(F)F (centres unmarked) 0.5

###

system: vancomycin-resistant enterococci; test: broth micro-dilution, mean geometric MIC; type: cell-based, Enterococcus faecium and Enterococcus faecalis; conditions: enterococci, 24-hour incubation
Measured Property: mean geometric MIC, Vancomycin Resistant Strains (µg/mL)
The response must be a number in µg/mL with no trailing unit.

Need mean geometric MIC, Vancomycin Resistant Strains, item CNC(CC(C)C)C(=O)NC1C(=O)NC(CC(N)=O)C(=O)NC2C(=O)NC3C(=O)NC(C(=O)NC(C(=O)O)c4cc(O)cc(O)c4-c4cc3ccc4O)C(OC3CC(C)(N)C(O)C(C)O3)c3ccc(c(Cl)c3)Oc3cc2cc(c3OC2OC(CO)C(O)C(O)C2OC2CC(C)(NCC3CCC4CCCC43)C(O)C(C)O2)Oc2ccc(cc2Cl)C1O (stereo not drawn) 6.7

Need mean geometric MIC, Vancomycin Resistant Strains, item CNC(CC(C)C)C(=O)NC1C(=O)NC(CC(N)=O)C(=O)NC2C(=O)NC3C(=O)NC(C(=O)NC(C(=O)O)c4cc(O)cc(O)c4-c4cc3ccc4O)C(OC3CC(C)(N)C(O)C(C)O3)c3ccc(c(Cl)c3)Oc3cc2cc(c3OC2OC(CO)C(O)C(O)C2OC2CC(C)(NCc3ccc(Cl)c(C(=O)c4ccccc4)c3Cl)C(O)C(C)O2)Oc2ccc(cc2Cl)C1O (stereo not drawn) 4.0

Further cases:
Need mean geometric MIC, Vancomycin Resistant Strains, item CNC(CC(C)C)C(=O)NC1C(=O)NC(CC(N)=O)C(=O)NC2C(=O)NC3C(=O)NC(C(=O)NC(C(=O)O)c4cc(O)cc(O)c4-c4cc3ccc4O)C(OC3CC(C)(N)C(O)C(C)O3)c3ccc(c(Cl)c3)Oc3cc2cc(c3OC2OC(CO)C(O)C(O)C2OC2CC(C)(NCc3cccc(OC(=O)c4ccccc4)c3)C(O)C(C)O2)Oc2ccc(cc2Cl)C1O (stereo not drawn) 4.8

###

test system: vancomycin-susceptible enterococci; experiment: broth micro-dilution, mean geometric MIC; assay type: cell-based, Enterococcus faecium and Enterococcus faecalis; details: enterococci, 24-hour incubation
Each entry below carries its recorded mean geometric MIC, Vancomycin Sensitive Strains.
The response must be a number in µg/mL with no trailing unit.

Need mean geometric MIC, Vancomycin Sensitive Strains, item CNC(CC(C)C)C(=O)NC1C(=O)NC(CC(N)=O)C(=O)NC2C(=O)NC3C(=O)NC(C(=O)NC(C(=O)O)c4cc(O)cc(O)c4-c4cc3ccc4O)C(OC3CC(C)(N)C(O)C(C)O3)c3ccc(c(Cl)c3)Oc3cc2cc(c3OC2OC(CO)C(O)C(O)C2OC2CC(C)(NCc3ccc(-c4ccc(Cl)cc4)cc3)C(O)C(C)O2)Oc2ccc(cc2Cl)C1O (centres unmarked) [Compound 229, 4-[4-chlorophenyl]benzyl-A82846B] 0.024

Let us move to another entry and its mean geometric MIC, Vancomycin Sensitive Strains.
Need mean geometric MIC, Vancomycin Sensitive Strains, item CNC(CC(C)C)C(=O)NC1C(=O)NC(CC(N)=O)C(=O)NC2C(=O)NC3C(=O)NC(C(=O)NC(C(=O)O)c4cc(O)cc(O)c4-c4cc3ccc4O)C(OC3CC(C)(N)C(O)C(C)O3)c3ccc(c(Cl)c3)Oc3cc2cc(c3OC2OC(CO)C(O)C(O)C2OC2CC(C)(NCCCCCCCCBr)C(O)C(C)O2)Oc2ccc(cc2Cl)C1O (centres unmarked) [Compound 198] 0.062
